Test system: K562;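 further: after 48 h exposure read by CellTiter-Glo luminescence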
method.notes: cell viability relative to vehicle control; higher = less cytotoxic
condition.context: 10 µM; SRSF2 genotype: SRSF2 wt/wt
measurement.kind: cell viability (%)
Numbers only, in %.

# example entries with known answers
{"columns": ["compound", "cell viability (%)"],
 "data": [
  ["Brc1ccc2[nH]ccc2c1 [5-Bromoindole]", 107],
  ["O=C(O)c1ccc(CN2CCC(CN[C@@H]3C[C@H]3c3ccccc3)CC2)cc1", 95.4],
  ["Cc1cc(C)cc(NC(=O)Cc2ccc(OC(C)(C)C(=O)O)cc2)c1 [Efaproxiral sodium]", 99.9],
  ["CCOc1nc2cccc(C(=O)OC(C)OC(=O)OC3CCCCC3)c2n1Cc1ccc(-c2ccccc2-c2nn[nH]n2)cc1 (stereo unspecified) [Candesartan cilexetil (Atacand)]", 75.5],
  ["O=C1c2c(O)ccc(O)c2C(=O)c2c(NCCNCCO)ccc(NCCNCCO)c21 [Mitoxantrone 2HCl]", 3.76]
]}

Now consider a different compound.
Data request: // fetch K562 cell viability for `CCNC(=O)Nc1ccc(-c2nc(N3CCOC[C@@H]3C)c3c(n2)C(C)(C)S(=O)(=O)C3)cc1`
Data returned: 34.4

Source: the supplement of paper PMC10981050
